molecular target: native mouse MET on living cells (mouse, UniProt P16056 25-1379); assay: cell-based or functional assay
scatter score 0-4, MLP29, 0.001 nM overview
Unit score implied. Number only.

>>> measurednumber("71D4 chimeric llama-human IgG1 mAb (antibody, V domains shown, llama VH on human IgG1 CH1-CH2-CH3, llama VL on human lambda CL) VH: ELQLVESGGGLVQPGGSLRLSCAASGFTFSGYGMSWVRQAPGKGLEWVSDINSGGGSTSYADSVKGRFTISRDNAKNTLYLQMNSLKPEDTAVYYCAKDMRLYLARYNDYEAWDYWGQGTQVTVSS VL: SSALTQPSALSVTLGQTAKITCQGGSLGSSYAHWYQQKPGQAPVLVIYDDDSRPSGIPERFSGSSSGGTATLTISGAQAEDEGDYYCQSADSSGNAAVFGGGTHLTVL")
0
>>> measurednumber("74C8 chimeric llama-human IgG1 mAb (antibody, V domains shown, llama VH on human IgG1 CH1-CH2-CH3, llama VL on human lambda CL) VH: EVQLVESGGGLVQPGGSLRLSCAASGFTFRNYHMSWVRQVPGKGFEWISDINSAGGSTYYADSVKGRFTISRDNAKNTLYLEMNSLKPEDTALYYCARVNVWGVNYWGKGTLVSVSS VL: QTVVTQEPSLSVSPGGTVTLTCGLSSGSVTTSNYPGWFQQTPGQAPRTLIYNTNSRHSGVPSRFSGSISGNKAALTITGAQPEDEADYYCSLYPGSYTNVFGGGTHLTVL")
0

// next item, scatter score 0-4, MLP29, 0.001 nM requested
Asked: Name the recorded scatter score 0-4, MLP29, 0.001 nM of the item 71G12 chimeric llama-human IgG1 mAb (antibody, V domains shown, llama VH on human IgG1 CH1-CH2-CH3, llama VL on human kappa CL) VH: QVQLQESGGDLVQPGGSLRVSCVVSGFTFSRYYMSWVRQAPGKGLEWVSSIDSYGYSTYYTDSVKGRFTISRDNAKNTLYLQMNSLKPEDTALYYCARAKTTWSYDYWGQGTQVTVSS VL: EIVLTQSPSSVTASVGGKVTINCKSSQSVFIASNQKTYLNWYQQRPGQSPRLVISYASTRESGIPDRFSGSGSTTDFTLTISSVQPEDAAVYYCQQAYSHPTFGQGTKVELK in your answer.
Given back: 0
